Target: T1, human IFNAR-1 protein (form not stated) (human, UniProt P17181 28-436, limits assumed)
T1 construct: bispecific ELISA
T1 sequence (looked up): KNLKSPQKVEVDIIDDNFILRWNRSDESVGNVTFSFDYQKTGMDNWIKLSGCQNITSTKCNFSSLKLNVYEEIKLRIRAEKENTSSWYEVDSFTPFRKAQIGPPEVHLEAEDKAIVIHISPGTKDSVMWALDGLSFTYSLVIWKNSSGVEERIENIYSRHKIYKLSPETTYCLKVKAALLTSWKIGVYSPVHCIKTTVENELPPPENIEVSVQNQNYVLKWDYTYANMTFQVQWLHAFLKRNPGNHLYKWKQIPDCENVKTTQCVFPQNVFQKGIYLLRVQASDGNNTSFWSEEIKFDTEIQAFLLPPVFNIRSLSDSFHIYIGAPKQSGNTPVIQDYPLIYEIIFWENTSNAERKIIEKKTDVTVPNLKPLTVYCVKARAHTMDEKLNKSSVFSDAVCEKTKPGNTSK
Assay: affinity ranking of expressed humanized 8G11 IgGs (method not named)
Parameter Kd: see the listing below.
Quick reminder: number only, in nM, skip the unit.

// known answers, use as guide
8G11-H2L2 (antibody, V domains shown, Humanized IgG expressed in HEK293; also called VH2 + VL2 (8G11)) VH: QVQLVQSGAEVVKPGASVKVSCKGSGFNIKDYYMHWVRQAPGQGLEWIGRIDPEDAETKYAPKFQGRVTMTADTSTSTVYMELSSLRSEDTAVYYCARGGNFYVMDYWGQGTLVTVSS VL: DIQLTQSPSFLSTSVGDRVTITCKASQNVGTNVVWYQQKPGKSPKVLIYSASYRVSGVPSRFSGSGSGTEFTLIISSLQPEDFATYYCQQKNNYPYTFGQGTKLEIK : 0.328
8G11 humanized VH4 + VL4 (antibody, V domains shown, Humanized IgG expressed in HEK293; also called VH4 + VL4 (8G11)) VH: QVQLVQSGAEVVKPGASVKLSCKGSGFNIKDYYMHWVKQAPGQGLEWIGRIDPEDAETKYAPKFQGRATITADTSTSTAYLELSSLRSEDTAVYYCARGGNFYVMDYWGQGTLVTVSS VL: DIQMTQSPSFLSTSVGDRVTVTCKASQNVGTNVVWYQQKPGKSPKVLIYSASYRVSGVPSRFSGSGSGTEFTLIISSVQPEDFATYFCQQKNNYPYTFGQGTKLEIK : 0.372
8G11 humanized VH3 + VL3 (antibody, V domains shown, Humanized IgG expressed in HEK293; also called VH3 + VL3 (8G11)) VH: QVQLVQSGAEVVKPGASVKVSCKGSGFNIKDYYMHWVKQAPGQGLEWIGRIDPEDAETKYAPKFQGRVTITADTSTSTVYLELSSLRSEDTAVYYCARGGNFYVMDYWGQGTLVTVSS VL: DIQLTQSPSFLSTSVGDRVTITCKASQNVGTNVVWYQQKPGKSPKVLIYSASYRVSGVPSRFSGSGSGTEFTLIISSVQPEDFATYFCQQKNNYPYTFGQGTKLEIK : 0.364

Okay, next one:
binder 8G11 humanized VH4 + VL1 (antibody, V domains shown, Humanized IgG expressed in HEK293; also called VH4 + VL1 (8G11)) VH: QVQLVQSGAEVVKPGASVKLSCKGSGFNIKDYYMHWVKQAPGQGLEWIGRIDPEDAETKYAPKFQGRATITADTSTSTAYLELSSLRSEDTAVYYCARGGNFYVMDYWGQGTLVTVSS VL: DIQLTQSPSFLSASVGDRVTITCKASQNVGTNVVWYQQKPGKAPKLLIYSASYRVSGVPSRFSGSGSGTEFTLTISSLQPEDFATYYCQQKNNYPYTFGQGTKLEIK , Kd observed: 0.489
